Data credit: ChEMBL document CHEMBL4130408

target: Polyunsaturated fatty acid lipoxygenase ALOX15 (Homo sapiens); assay: Inhibition of recombinant human 15-LOX-1 expressed in Escherichia coli BL21(DE3) using linoleic acid as substrate preincubated for 10 mins followed by substrate addition
Sequence (P16050 whole entry): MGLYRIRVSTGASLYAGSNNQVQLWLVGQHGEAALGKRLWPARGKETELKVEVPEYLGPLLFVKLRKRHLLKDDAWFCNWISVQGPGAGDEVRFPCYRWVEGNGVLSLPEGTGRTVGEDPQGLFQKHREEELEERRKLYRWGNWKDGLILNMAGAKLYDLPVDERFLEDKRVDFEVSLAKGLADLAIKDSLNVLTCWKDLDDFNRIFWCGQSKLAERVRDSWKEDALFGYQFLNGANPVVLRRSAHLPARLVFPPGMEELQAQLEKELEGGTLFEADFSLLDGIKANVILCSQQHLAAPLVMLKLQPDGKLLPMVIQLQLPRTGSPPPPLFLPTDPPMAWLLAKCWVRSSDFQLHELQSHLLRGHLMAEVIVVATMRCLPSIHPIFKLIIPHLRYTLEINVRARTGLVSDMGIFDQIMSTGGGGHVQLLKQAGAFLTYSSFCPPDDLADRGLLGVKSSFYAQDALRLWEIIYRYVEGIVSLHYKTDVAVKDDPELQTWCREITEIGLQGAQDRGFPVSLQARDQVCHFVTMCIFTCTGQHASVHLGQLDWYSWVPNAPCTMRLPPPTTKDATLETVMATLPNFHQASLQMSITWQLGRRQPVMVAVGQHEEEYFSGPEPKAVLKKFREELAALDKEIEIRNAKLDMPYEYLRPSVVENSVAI
MEASURE_NAME: IC50

Completed entries (count: 3):
>  <CHEM_SMILES>
Nc1[nH]c(C(=O)c2ccccc2)c(-c2ccc(Cl)cc2Cl)c1C(=O)c1ccc(Cl)c(Cl)c1

>  <IC50>
12.8 µM

$$$$
>  <CHEM_SMILES>
Nc1[nH]c(C(=O)c2ccccc2)c(-c2ccc3c(c2)OCO3)c1C(=O)c1cccc(Cl)c1

>  <IC50>
> 100 µM

$$$$
>  <CHEM_SMILES>
Nc1[nH]c(C(=O)c2ccccc2)c(-c2ccc(Cl)cc2)c1C(=O)c1cccc(Cl)c1

>  <IC50>
> 100 µM

$$$$

// query Please report IC50 with Polyunsaturated fatty acid lipoxygenase ALOX15 (Homo sapiens) for item `Nc1[nH]c(C(=O)c2ccccc2)c(-c2ccc(Cl)cc2Cl)c1C(=O)c1cccc(F)c1` .
// result > 100 µM

// query Would you please give the reported IC50 of `Nc1[nH]c(C(=O)c2ccccc2)c(-c2ccc(Cl)cc2Cl)c1C(=O)c1ccccc1` with Polyunsaturated fatty acid lipoxygenase ALOX15 (Homo sapiens)?
// result > 100 µM

###

target: Polyunsaturated fatty acid lipoxygenase ALOX15 (Homo sapiens); assay: Inhibition of recombinant human 15-LOX-1 expressed in Escherichia coli BL21(DE3) assessed as residual activity at 50 uM using linoleic acid as substrate preincubated for 10 mins followed by substrate addition
MEASURE_NAME: Activity (%)

Before answering, review these 2 worked examples.
>  <CHEM_SMILES>
COc1ccc(C(=O)c2[nH]c(N)c(C(=O)NCCc3c[nH]c4ccccc34)c2-c2ccc(OC)c(OC)c2)cc1

>  <TESTED_ON>
Polyunsaturated fatty acid lipoxygenase ALOX15 (Homo sapiens)

>  <UNIT_LABEL>
%

>  <Activity>
70.3

$$$$
>  <CHEM_SMILES>
Nc1[nH]c(C(=O)c2ccc(Br)cc2)c(-c2ccc(Cl)cc2)c1C(=O)NCCc1c[nH]c2ccccc12

>  <TESTED_ON>
Polyunsaturated fatty acid lipoxygenase ALOX15 (Homo sapiens)

>  <UNIT_LABEL>
%

>  <Activity>
19.3

$$$$

(A) COc1ccc2cccc(-c3c(C(=O)c4ccc(Br)cc4)[nH]c(N)c3C(=O)NCc3ccc(F)c(F)c3)c2c1
(B) Nc1[nH]c(C(=O)c2ccccc2)c(-c2ccccc2Br)c1C(=O)c1cccs1
// query Between these two entries, A and B , state which has the higher Activity. Kindly give the label for the entry you pick.
// result A

###

molecular target: Polyunsaturated fatty acid lipoxygenase ALOX15 (Homo sapiens); test: Inhibition of recombinant human 15-LOX-1 expressed in Escherichia coli BL21(DE3) assessed as residual activity at 50 uM using linoleic acid as substrate preincubated for 10 mins followed by substrate addition
MEASURE_NAME: Activity (%)

Sample records with Activity:
>  <CHEM_SMILES>
Nc1[nH]c(C(=O)c2ccccc2)c(-c2ccc(Br)cc2)c1C(=O)NC1CCCCC1

>  <Activity / %>
87.5

$$$$
>  <CHEM_SMILES>
Nc1[nH]c(C(=O)c2ccc(Br)cc2)c(-c2ccncc2)c1C(=O)NCCc1c[nH]c2ccccc12

>  <Activity / %>
86.1

$$$$
>  <CHEM_SMILES>
Nc1[nH]c(C(=O)c2ccc(Cl)cc2)c(-c2ccc(Br)cc2)c1C(=O)NCCc1c[nH]c2ccccc12

>  <Activity / %>
53.3

$$$$
>  <CHEM_SMILES>
CN(C)CCCNC(=O)c1c(N)[nH]c(C(=O)c2ccc(Br)cc2)c1-c1ccc(Br)cc1

>  <Activity / %>
114

$$$$
>  <CHEM_SMILES>
COc1ccc(CCNC(=O)c2c(N)[nH]c(C(=O)c3ccccc3)c2-c2ccc(N(C)C)cc2)cc1

>  <Activity / %>
66.4

$$$$

(P) CC(C)(C)C(=O)c1c(N)[nH]c(C(=O)c2ccccc2)c1-c1ccc(F)cc1
(Q) Nc1[nH]c(C(=O)c2ccc(Br)cc2)c(-c2ccc3ccccc3c2)c1C(=O)NCCc1c[nH]c2ccccc12
// query Given the listed items, does P or Q have the lesser reported Activity? Use the label to indicate which entry you chose.
// result Q
(Q: 36%, P: 91.4%)

(a) Nc1[nH]c(C(=O)c2ccccc2)c(-c2ccc(Cl)c(F)c2)c1C(=O)c1c[nH]c2ccccc12
(b) Nc1[nH]c(C(=O)c2ccccc2)c(-c2ccc3c(c2)OCO3)c1C(=O)NCCc1c[nH]c2ccccc12
// query API: POST /compare with a and b ; response names the item with higher Activity. Pick one and reply with its label.
// result a
(a: 91.7%, b: 62.7%)

(a) Nc1[nH]c(C(=O)c2ccccc2)c(-c2ccc(Cl)cc2)c1C(=O)NCc1ccco1
(b) Nc1[nH]c(C(=O)c2ccc(Br)cc2)c(-c2ccccn2)c1C(=O)NCCc1c[nH]c2ccccc12
// query Thinking about recorded Activity values, which is higher, a or b ? // return label of chosen record
// result a
